B1: HDV Ribozyme (parent)
chain: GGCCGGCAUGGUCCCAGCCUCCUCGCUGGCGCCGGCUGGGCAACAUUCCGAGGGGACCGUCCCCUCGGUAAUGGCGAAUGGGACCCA

# Variants of: B1
# ASSAY_INFO: self-cleavage, relative activity (ratio to wild type); higher = more cleavage; co-transcriptional
Threshold check on self-cleavage: at or above 0.2 gives T, strictly below gives F.

Say whether A77C C86U shows self-cleavage of 0.2 or more. T

Say whether G17A A70C shows self-cleavage of 0.2 or more. T

Say whether A8U U23A shows self-cleavage of 0.2 or more. T

Say whether G35C U46A shows self-cleavage of 0.2 or more. F

---
Say whether C22G U72C shows self-cleavage of 0.2 or more. F

Say whether C26U G38C shows self-cleavage of 0.2 or more. F

Say whether C15G A43U shows self-cleavage of 0.2 or more. F

Say whether G38A G74C shows self-cleavage of 0.2 or more. F

Say whether C3U G74U shows self-cleavage of 0.2 or more. T

Say whether G1C A51U shows self-cleavage of 0.2 or more. T

Say whether C48G G55U shows self-cleavage of 0.2 or more. T

Say whether C3U C15A shows self-cleavage of 0.2 or more. T

Say whether C3G C13U shows self-cleavage of 0.2 or more. T

Say whether C15U U72A shows self-cleavage of 0.2 or more. T

Say whether A70C G80U shows self-cleavage of 0.2 or more. T

Say whether G1U C41G shows self-cleavage of 0.2 or more. T

Say whether A43C G50A shows self-cleavage of 0.2 or more. T

Say whether G35U U47G shows self-cleavage of 0.2 or more. T

Say whether U46C G74C shows self-cleavage of 0.2 or more. T

Say whether U9G G67C shows self-cleavage of 0.2 or more. T

Say whether G29C G38U shows self-cleavage of 0.2 or more. F
